Test system: NK-92 (IL-2 2.5 ng/mL);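 note: normalised to DMSO-only wells as negative and benzethonium chloride as positive control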
Test: percent inhibition of viability; higher = more inhibition
Settings: 72 h; 1000 nM
I'd be grateful if you could share measured percent inhibition of viability for these entries.
Answer in %, number only, no unit symbol.

Briefly, percent inhibition of viability measured for COc1ccc(-c2cc3c(C)nc(N)nc3n([C@H]3CC[C@H](OCCO)CC3)c2=O)cn1 (max concentration tested 10000 nM) : 75.7

GET /value?item= CC(O)(CS(=O)(=O)c1ccc(F)cc1)C(=O)Nc1ccc(C#N)c(C(F)(F)F)c1 (configuration not stated) [Bicalutamide] (max concentration tested 10000 nM) &field=percent inhibition of viability returns 20.1

So for COc1ccc(-c2ccc3ncc4c(c3c2)n(-c2ccc(N3CCNCC3)c(C(F)(F)F)c2)c(=O)n4C)cn1 [NVP-BGT226] (max concentration tested 1000 nM) , the logged percent inhibition of viability turned out to be 96.2

Lab note: Cc1nc(Nc2ncc(C(=O)Nc3c(C)cccc3Cl)s2)cc(N2CCN(CCO)CC2)n1 [Dasatinib] (max concentration tested 1000 nM) gave percent inhibition of viability of 22.6

The reported value for CNC(=O)c1ccc(C)c(-n2c(C)cc(OCc3ccc(F)cc3F)c(Br)c2=O)c1 (max concentration tested 1000 nM) in terms of percent inhibition of viability is 28.7

// percent inhibition of viability value for CN1CCc2c(c3ccccc3n2Cc2ccc(C(=O)NO)cc2)C1 [Tubastatin A] (max concentration tested 10000 nM) : 22.2

For this molecule ( O=C(NOCC1CC1)c1ccc(F)c(F)c1Nc1ccc(I)cc1Cl (max concentration tested 10000 nM) ), measured percent inhibition of viability is -0.9

The recorded percent inhibition of viability for entry CC(=O)Nc1ccc(C(=O)Nc2ccccc2N)cc1 [Tacedinaline] (max concentration tested 1000 nM) equals 27.5

For CNNCc1ccc(C(=O)NC(C)C)cc1 [Procarbazine] (max concentration tested 10000 nM) the molecule record lists percent inhibition of viability as -0.23

Briefly, percent inhibition of viability measured for Cc1ncc(-c2ccnc(Nc3ccc(S(C)(=O)=O)cc3)n2)n1C(C)C [AZD-5438] (max concentration tested 10000 nM) : -0.77

Input COc1cc2c(Oc3ccc(NC(=O)C4(C(=O)Nc5ccc(F)cc5)CC4)cc3F)ccnc2cc1OCCCN1CCOCC1 [Foretinib] (max concentration tested 1000 nM) . Output percent inhibition of viability: 34.9

get_value(item= COc1cc2ncnc(Nc3ccc(F)c(Cl)c3)c2cc1NC(=O)/C=C/CN1CCCCC1 [Dacomitinib] (max concentration tested 1000 nM) , readout=percent inhibition of viability) returns 27.1

Just so you know, measured percent inhibition of viability for CC(C)C(=O)Nc1ccc([N+](=O)[O-])c(C(F)(F)F)c1 [Flutamide] (max concentration tested 10000 nM) came out at 12.1

Item: CCC1=C[C@@H]2CN(C1)Cc1c([nH]c3ccccc13)[C@@](C(=O)OC)(c1cc3c(cc1OC)N(C)[C@H]1[C@@](O)(C(=O)OC)[C@H](OC(C)=O)[C@]4(CC)C=CCN5CC[C@]31[C@@H]54)C2 [Vinorelbine] (max concentration tested 10000 nM) | percent inhibition of viability: 98.5

// percent inhibition of viability value for C[C@@H]1COC(Nc2ccc3ncnc(Nc4ccc(OCc5nccs5)c(Cl)c4)c3c2)=N1 [Varlitinib] (max concentration tested 10000 nM) : 4.69

# percent inhibition of viability (molecule: O=C(Nc1c[nH]nc1-c1nc2ccc(CN3CCOCC3)cc2[nH]1)NC1CC1 [AT9283] (max concentration tested 1000 nM) ) is 67.7

Value of percent inhibition of viability reported for the molecule CC(C)C[C@H](NC(=O)[C@H](CCc1ccccc1)NC(=O)CN1CCOCC1)C(=O)N[C@@H](Cc1ccccc1)C(=O)N[C@@H](CC(C)C)C(=O)[C@@]1(C)CO1 [Carfilzomib] (max concentration tested 1000 nM) is 106
